molecular target: human plasmatic butyrylcholinesterase (hBChE) (Homo sapiens); construct: gene BCHE
Sequence (P06276 29-602): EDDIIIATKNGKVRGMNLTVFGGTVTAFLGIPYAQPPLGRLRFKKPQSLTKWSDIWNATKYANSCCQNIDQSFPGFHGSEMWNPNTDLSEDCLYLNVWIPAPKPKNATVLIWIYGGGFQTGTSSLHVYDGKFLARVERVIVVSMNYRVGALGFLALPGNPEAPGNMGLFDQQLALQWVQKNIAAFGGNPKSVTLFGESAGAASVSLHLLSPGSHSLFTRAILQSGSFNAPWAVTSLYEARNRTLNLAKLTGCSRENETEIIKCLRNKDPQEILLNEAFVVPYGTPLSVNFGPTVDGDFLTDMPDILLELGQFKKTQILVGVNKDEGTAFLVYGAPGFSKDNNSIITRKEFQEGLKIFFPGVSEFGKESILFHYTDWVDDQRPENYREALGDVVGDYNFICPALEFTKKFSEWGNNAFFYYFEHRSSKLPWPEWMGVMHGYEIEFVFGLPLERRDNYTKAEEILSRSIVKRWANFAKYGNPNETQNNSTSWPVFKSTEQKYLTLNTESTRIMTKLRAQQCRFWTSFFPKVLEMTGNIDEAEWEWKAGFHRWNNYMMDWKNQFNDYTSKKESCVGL
readout_label: IC50 (µM)
Hi! Could you send only the number? It should be in µM, unit omitted.

Query block: What IC50 value was documented for this compound, `C1=Cc2ccccc2C(N2CCCCC2)c2ccccc21` ?
Result block: 16.5

* * *

biological target: hGluN1/hGluN2A (Homo sapiens, UniProt Q05586+Q12879); assay: cell-based; design: gene GRIN1; cDNA vectors for human GluN1-1a and GluN2A co-transfected with GFP in HEK293 cells; diheteromeric receptor; whole-cell voltage-clamp electrophysiology, inhibition of steady-state L-glutamate-induced currents at -60 mV; settings: HEK293; -60 mV, 1 mM L-glutamate
Sequence (Q12879 23-1464, other chains not shown): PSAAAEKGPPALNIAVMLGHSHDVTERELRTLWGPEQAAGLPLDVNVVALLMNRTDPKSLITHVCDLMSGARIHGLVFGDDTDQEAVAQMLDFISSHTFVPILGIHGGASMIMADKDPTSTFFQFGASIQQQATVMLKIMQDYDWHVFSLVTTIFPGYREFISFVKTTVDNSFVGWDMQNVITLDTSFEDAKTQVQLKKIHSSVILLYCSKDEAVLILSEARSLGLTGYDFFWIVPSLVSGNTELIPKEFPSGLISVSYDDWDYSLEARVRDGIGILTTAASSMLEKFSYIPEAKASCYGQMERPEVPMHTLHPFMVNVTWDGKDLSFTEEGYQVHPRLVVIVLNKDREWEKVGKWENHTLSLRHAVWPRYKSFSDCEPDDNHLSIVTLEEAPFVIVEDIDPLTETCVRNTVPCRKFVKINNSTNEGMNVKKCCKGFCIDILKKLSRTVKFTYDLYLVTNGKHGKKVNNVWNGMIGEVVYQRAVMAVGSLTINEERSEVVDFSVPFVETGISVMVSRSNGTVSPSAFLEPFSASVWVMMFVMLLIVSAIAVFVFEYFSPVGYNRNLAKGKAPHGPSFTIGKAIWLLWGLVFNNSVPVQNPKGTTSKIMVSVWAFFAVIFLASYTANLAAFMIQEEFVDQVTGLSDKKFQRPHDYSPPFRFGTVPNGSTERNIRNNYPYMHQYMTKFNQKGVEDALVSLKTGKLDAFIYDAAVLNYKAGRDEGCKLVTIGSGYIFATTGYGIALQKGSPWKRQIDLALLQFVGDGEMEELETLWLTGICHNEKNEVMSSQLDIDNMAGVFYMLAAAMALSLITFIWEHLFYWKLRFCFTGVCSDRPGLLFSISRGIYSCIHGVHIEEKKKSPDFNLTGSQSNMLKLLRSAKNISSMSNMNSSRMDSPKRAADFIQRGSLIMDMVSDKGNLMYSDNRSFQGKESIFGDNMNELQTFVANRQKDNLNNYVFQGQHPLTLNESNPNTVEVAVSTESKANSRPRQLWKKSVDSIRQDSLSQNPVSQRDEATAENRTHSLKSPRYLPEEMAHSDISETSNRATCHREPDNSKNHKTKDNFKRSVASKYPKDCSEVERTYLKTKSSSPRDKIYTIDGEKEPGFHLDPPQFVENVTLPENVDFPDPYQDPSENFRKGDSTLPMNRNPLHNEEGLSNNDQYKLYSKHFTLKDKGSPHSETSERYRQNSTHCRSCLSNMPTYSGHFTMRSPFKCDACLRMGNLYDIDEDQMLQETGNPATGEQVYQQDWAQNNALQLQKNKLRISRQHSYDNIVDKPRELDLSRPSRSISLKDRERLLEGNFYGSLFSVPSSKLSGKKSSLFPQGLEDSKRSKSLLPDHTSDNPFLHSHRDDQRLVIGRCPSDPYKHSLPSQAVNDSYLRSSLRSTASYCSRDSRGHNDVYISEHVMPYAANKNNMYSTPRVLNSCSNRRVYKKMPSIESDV
Record form. Attribute: inhibition at 3 µM. Fill in for each entry.
Hi! Could you send only the number? It should be in %, unit omitted.

Query block: Recall the recorded inhibition at 3 µM for `CNC1c2ccccc2C=Cc2ccccc21` with hGluN1/hGluN2A (Homo sapiens, UniProt Q05586+Q12879) and state it.
Result block: 54.3

Query block: Recall the recorded inhibition at 3 µM for `c1ccc2c(c1)CCc1ccccc1C2NC1CC1` with hGluN1/hGluN2A (Homo sapiens, UniProt Q05586+Q12879) and state it.
Result block: 40.1

Query block: Recall the recorded inhibition at 3 µM for `CCN1CCN(C2c3ccccc3CCc3ccccc32)CC1` with hGluN1/hGluN2A (Homo sapiens, UniProt Q05586+Q12879) and state it.
Result block: 7.64

Query block: Recall the recorded inhibition at 3 µM for `c1ccc2c(c1)CCc1ccccc1C2N1CCCC1` with hGluN1/hGluN2A (Homo sapiens, UniProt Q05586+Q12879) and state it.
Result block: 49.8

Query block: Recall the recorded inhibition at 3 µM for `c1ccc2c(c1)CCc1ccccc1C2NC1CCCCC1` with hGluN1/hGluN2A (Homo sapiens, UniProt Q05586+Q12879) and state it.
Result block: 79.4

Query block: Recall the recorded inhibition at 3 µM for `CC(C)CNC1c2ccccc2C=Cc2ccccc21` with hGluN1/hGluN2A (Homo sapiens, UniProt Q05586+Q12879) and state it.
Result block: 93.2

Query block: Recall the recorded inhibition at 3 µM for `c1ccc2c(c1)CCc1ccccc1C2N1CCCCC1` with hGluN1/hGluN2A (Homo sapiens, UniProt Q05586+Q12879) and state it.
Result block: 5.4

Query block: Recall the recorded inhibition at 3 µM for `C1=Cc2ccccc2C(NC2CC2)c2ccccc21` with hGluN1/hGluN2A (Homo sapiens, UniProt Q05586+Q12879) and state it.
Result block: 45

Query block: Recall the recorded inhibition at 3 µM for `CC(C)CNC1c2ccccc2CCc2ccccc21` with hGluN1/hGluN2A (Homo sapiens, UniProt Q05586+Q12879) and state it.
Result block: 76.8

Query block: Recall the recorded inhibition at 3 µM for `CN1CCN(C2c3ccccc3CCc3ccccc32)CC1` with hGluN1/hGluN2A (Homo sapiens, UniProt Q05586+Q12879) and state it.
Result block: 9.7

Query block: Recall the recorded inhibition at 3 µM for `COCCNC1c2ccccc2C=Cc2ccccc21` with hGluN1/hGluN2A (Homo sapiens, UniProt Q05586+Q12879) and state it.
Result block: 35.6

Query block: Recall the recorded inhibition at 3 µM for `CC(C)NC1c2ccccc2CCc2ccccc21` with hGluN1/hGluN2A (Homo sapiens, UniProt Q05586+Q12879) and state it.
Result block: 52.2
